The entries below are paired with their reported pKd.
Biological target: NACα protein (Homo sapiens)
Experiment: Localized surface plasmon resonance (SPR) binding to NACα protein
Settings: DEPC-treated water, 25° C., ratio Koff/Kon
The quantity pKd is defined as the negative base-10 logarithm of the molar concentration.

>>> value("CAACCUCCGGGGCCACAAUAGCGAGAUUUGUAAGACUCUAGGGCCUCCCAG (chemistry not given here) [DICAR-JP45]")
8.22

Now let's try a different one.
Record CAACCUCCGGGGCCACAAUAGCGAGAUUUGUAAGACUCCAGGGCCUCCCAG (chemistry not given here) [DICAR-JP, reference compound] / NACα protein (Homo sapiens), pKd recorded as 7.42

* * *

Tested on: AC16 cardiomyocytes treated with AGEs
Test: Pharmacodynamics: CCK8 EC50 against AGEs-induced cardiomyocyte injury
Format: cell-based, human
Details: 1-50 nM, 24 h + AGEs 200 μg/mL, CCK8, fitting curve, read-out: half-maximal effect concentration (EC50)
Catalogue of EC50 values
Just the number in nM, nothing appended.

>>> value("CAACCUCCGGGGCCACAAUAGCGAGAUUUGUAAGACUCUAGGGCCUCCCAG (chemistry not given here) [DICAR-JP45]")
17.9

Let us examine a further case.
Response field EC50 (AC16 cardiomyocytes treated with AGEs) for item CAACCUCCGGGGCCACAAUAGCGAGAUUUGUAAGACUCCAGGGCCUCCCAG (chemistry not given here) [DICAR-JP, reference compound] : 26.2
